Numbers sourced from patent US10028931B2.

Could you please report measured MIC for the items listed next?
- Test system: Staphylococcus aureus strain UAMS-1
- Protocol text: Antimicrobial susceptibility testing (MIC, broth microdilution)
- Format: cell-based
- Condition set: Staphylococcus aureus, UAMS1, 18 h, S. aureus UAMS-1, Mueller Hinton broth, 37° C., read-out: MIC

Example entries begin here.
CC(C)c1ccc(OCC(=O)NNC(=S)NC(=O)c2cnc3ccccc3c2)cc1 :: > 128 µg/mL
Cc1ccc(C(=O)NNC(=O)COc2ccc(C(C)C)cc2)o1 :: > 256 µg/mL
Cc1ccc(CNc2c(NCCc3ccc(C(C)C)cc3)c(=O)c2=O)o1 :: > 128 µg/mL
CC(C)c1ccc(OCC(=O)NNC(=O)/C=C/c2cc3ccccc3o2)cc1 :: > 256 µg/mL

I have 3 molecules here; please give me MIC for each one.
1. CC(C)c1ccc(OCC(=O)NNC(=O)c2ccsc2)cc1
2. CC(Oc1ccc2ccccc2c1)C(=O)NNC(=S)NC(=O)c1ccco1 (stereo not shown)
3. O=C(NNC(=S)NC(=O)c1ccco1)c1ccc(NC(=O)c2ccccc2)cc1

1. > 256 µg/mL
2. > 128 µg/mL
3. > 128 µg/mL

----------
Could you please report measured IC50 for the items listed next?
- Test system: S. aureus RNase P (RnpA+rnpB) (Staphylococcus aureus)
- Sequence (P0A0H5 whole entry): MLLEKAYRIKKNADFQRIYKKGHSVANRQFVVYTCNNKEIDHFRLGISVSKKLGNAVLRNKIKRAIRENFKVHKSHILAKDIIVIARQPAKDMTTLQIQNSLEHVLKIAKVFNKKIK
- Protocol text: RNase P activity assay (precursor tRNA processing)
- Assay type: biochemical
- Condition set: ptRNATyr processing, gel densitometry; read-out: RNase P IC50

Example entries begin here.
COc1ccc2[nH]c(C(=O)NC(=S)NNC(=O)COc3ccc(C(C)C)cc3)cc2c1 :: < 50 µM
COc1ccccc1C(=O)NC(=S)NNC(=O)COc1ccc(C(C)C)cc1 :: > 500 µM
O=C(NC(=S)NNC(=O)c1ccc(O)cc1O)c1ccco1 :: > 500 µM
CC(C)COc1ccc(C(=O)NNC(=S)NC(=O)c2ccco2)cc1 :: > 500 µM
CC(C)c1ccc(OCC(=O)NNC(=O)/C=C/c2cc3ccccc3o2)cc1 :: < 50 µM
CCOc1ccccc1C(=O)NNC(=S)NC(=O)c1ccco1 :: > 500 µM

Shifting focus to the compound that follows.
S. aureus RNase P (RnpA+rnpB) (Staphylococcus aureus) assay, compound COc1cccc(OC)c1C(=O)NC(=S)NNC(=O)c1ccco1 , recorded IC50 = > 500 µM

----------
- Test system: Staphylococcus aureus strain UAMS-1
- Protocol text: Antimicrobial susceptibility testing (MIC, broth microdilution)
- Format: cell-based
- Condition set: Staphylococcus aureus, UAMS1, 18 h, S. aureus UAMS-1, Mueller Hinton broth, 37° C., read-out: MIC
Measure name: log10 MIC (log10 of the value in µg/mL)
In plain terms, each number is the log10 of measured MIC in µg/mL.

I have 5 compounds here; please give me log10 MIC for each one.
1. CCC(C)c1ccc(OCC(=O)NNC(=S)NC(=O)c2ccc(-c3ccccc3)cc2)cc1 (stereo not shown)
2. O=C(NNC(=S)NC(=O)c1ccco1)c1ccc(F)cc1
3. Cc1occc1C(=O)NNC(=S)NC(=O)COc1ccc(Cl)cc1Cl
4. O=C(/C=C/c1ccccc1)NNC(=S)NC(=O)c1ccco1
5. O=C(COc1ccc(-c2ccccc2)cc1)NNC(=S)NC(=O)c1ccc(Br)o1

1. 1.81
2. 1.81
3. 0.60
4. 1.81
5. 1.51

I have 4 compounds here; please give me log10 MIC for each one.
1. CC(C)c1ccc(OCC(=O)NNC(=S)NC(=O)c2cc3cc(Cl)ccc3[nH]2)cc1
2. CC(C)c1ccc(OCC(=O)NNC(=S)NC(=O)c2cc3ccccc3o2)cc1
3. Cc1ccc(OCC(=O)NNC(=S)NC(=O)c2ccc(Br)o2)c(C)c1
4. O=C(NC(=S)NNC(=O)C1C[C@H]1c1ccccc1)c1ccco1 (stereo partly shown)

1. 2.41
2. 1.51
3. 0.90
4. 1.51

I have 5 compounds here; please give me log10 MIC for each one.
1. Cc1cc(OCC(=O)NNC(=S)NC(=O)c2ccc(Br)o2)ccc1Cl
2. COc1ccccc1C(=O)NC(=S)NNC(=O)COc1ccc(C(C)C)cc1
3. CC(C)c1ccc(OCC(=O)NNC(=S)NC(=O)c2ccco2)cc1
4. O=C(Cc1ccc(Cl)cc1)NNC(=S)NC(=O)c1ccco1
5. CC(C)c1ccc(OCC(=O)NNC(=S)NC(=O)c2cc3ccccc3n2C)cc1

1.20
2.11
1.20
1.20
1.81
